- study-target: Voltage-gated inwardly rectifying potassium channel KCNH2 (Homo sapiens)
- run-description: Human Ether-a-go-go-Related Gene (hERG) channel small molecule antagonists: fluorescence cell-based qHTS assay (AID 1671200); also: nearly all actives have a fitted effect of over 50% in size
- recorded-conditions: hERG-U2OS cells, FluxOR thallium flux fluorescence; series mostly up to 76.8 µM
Inconclusive results are not listed. Calls of active or inactive are those of the source. Calls follow the shape of the dose curve; as a rule, active = well fitted inhibition curve with a large enough effect in the repeat runs; inconclusive = weak or mixed curves; inactive = flat fitted curve, though single readings scatter.
Classes used: Y (active), N (inactive)

CC(=O)c1ccc(Cl)c(Cl)c1Cl    N
O=C(OC1C[C@H]2CC[C@@H](C1)[N+]21CCCC1)C(O)(c1ccccc1)c1ccccc1 (some centres not stated)    N
CC(CC(C#N)(c1ccccc1)C(C)C)N(C)C (configuration not stated)    N
Clc1cc(Cl)c2c(c1)N=C1CCCCCN1C2    Y
CCCCCCC/C=C/C=O    N
CC(=O)Nc1cccc(N)c1    N
CCCCOC(=O)C(C)Oc1ccc(Oc2ccc(C(F)(F)F)cn2)cc1 (configuration not stated)    Y
